# Tested on: yellow nutsedge
# PROTOCOL_TEXT: Preemergent control of plant species
# Type: in vivo, Cyperus esculentus
# RUN_CONDITIONS: Cyperus, pre-emergence, 336 h; 0.25 lb/acre; read-out: percent preemergent control
MEASURE_NAME: pest or weed control at 280.212 g/ha

1. Cc1ccc(Cl)c(NS(=O)(=O)c2nc3nc(C)c(Cl)c(C)n3n2)c1Cl [Compound 199]	0%
2. COc1cccc(C(F)(F)F)c1NS(=O)(=O)c1nc2nccc(C)n2n1 [Compound 191]	100%
3. Cc1ccn2nc(S(=O)(=O)Nc3c(C)cccc3C#N)nc2n1 [Compound 165]	90%

Attention now turns to another entry.
Query: For the compound Cc1ccn2nc(S(=O)(=O)N(C(=O)C(C)C)c3c(F)cccc3F)nc2n1 [Compound 277] , what pest or weed control at 280.212 g/ha is on record?
Response: 100%
